Parameter IC50, tested on Fms kinase (Homo sapiens), listed per item.

Below, each entry is followed by its recorded IC50 result.
{"ITEM SMILES": "Cc1cnc2[nH]cc(Cc3cnc(Nc4cc(-c5ccc(F)cc5)n[nH]4)nc3)c2c1", "RESULT": "> 1000 nM"}
{"ITEM SMILES": "CCc1ccc(Nc2ccc(C(=O)c3c[nH]c4ncnc(NCC5CC5)c34)c(F)n2)cn1", "RESULT": "< 100 nM"}
{"ITEM SMILES": "Cc1cnc2[nH]cc(Cc3cnc(Nc4cc(OC(C)C)n[nH]4)nc3)c2c1", "RESULT": "< 1000 nM"}

q: I would be grateful if you could share the reported IC50 for Cc1ccc(Nc2ccc(Cc3c[nH]c4ncc(Cl)cc34)c(F)n2)cn1 .
a: < 10 nM

q: I would be grateful if you could share the reported IC50 for CCc1ccc(Nc2ccc(C(=O)c3c[nH]c4ncnc(NC5CCOCC5)c34)c(F)n2)cn1 .
a: < 100 nM

* * *

Known IC50 of a selection of molecules
- STUDY SYSTEM: BCR-KIT BaF3 cells (Homo sapiens, UniProt P10721)
- Construct: fused on or other part: P11274 (Breakpoint cluster region protein)
- Sequence (P10721 589-937): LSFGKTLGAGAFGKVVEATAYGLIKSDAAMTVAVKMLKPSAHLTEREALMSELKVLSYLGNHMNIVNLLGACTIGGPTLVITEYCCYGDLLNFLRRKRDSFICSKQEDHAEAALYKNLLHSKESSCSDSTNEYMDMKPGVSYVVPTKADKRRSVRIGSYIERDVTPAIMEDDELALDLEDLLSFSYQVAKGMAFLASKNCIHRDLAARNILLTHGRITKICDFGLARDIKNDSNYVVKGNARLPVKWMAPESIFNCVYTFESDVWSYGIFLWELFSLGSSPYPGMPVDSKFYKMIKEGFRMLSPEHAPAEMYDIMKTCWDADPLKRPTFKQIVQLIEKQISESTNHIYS
- PROCEDURE DETAILS: BaF3 BCR-KIT cell proliferation assay (ATPlite)
- ASSAY CONDITIONS: read-out: Inhibition of Cell Proliferation IC50, BCR/BaF3 Kit

Below, each entry is followed by its recorded IC50 result.
{"MOLECULE": "Clc1cnc2[nH]cc(Cc3cnc(NC4CCCCC4)nc3)c2c1 [Compound P-3001]", "STUDY SYSTEM": "BCR-KIT BaF3 cells (Homo sapiens, UniProt P10721)", "IC50": "> 1000 nM"}
{"MOLECULE": "COc1ccc(Nc2ccc(C(=O)c3c[nH]c4ncnc(NC5CCCCC5)c34)c(F)n2)cn1 [Compound P-4082]", "STUDY SYSTEM": "BCR-KIT BaF3 cells (Homo sapiens, UniProt P10721)", "IC50": "< 100 nM"}

q: I would be grateful if you could share the reported IC50 for COc1ccc(Nc2ccc(Cc3c[nH]c4ncc(C)cc34)c(F)n2)cn1 [Compound P-3019] .
a: < 1000 nM

* * *

- STUDY SYSTEM: BCR-FMS BaF3 cells (Homo sapiens)
- Construct: fused on or other part: P11274 (Breakpoint cluster region protein)
- Sequence (P07333 582-910): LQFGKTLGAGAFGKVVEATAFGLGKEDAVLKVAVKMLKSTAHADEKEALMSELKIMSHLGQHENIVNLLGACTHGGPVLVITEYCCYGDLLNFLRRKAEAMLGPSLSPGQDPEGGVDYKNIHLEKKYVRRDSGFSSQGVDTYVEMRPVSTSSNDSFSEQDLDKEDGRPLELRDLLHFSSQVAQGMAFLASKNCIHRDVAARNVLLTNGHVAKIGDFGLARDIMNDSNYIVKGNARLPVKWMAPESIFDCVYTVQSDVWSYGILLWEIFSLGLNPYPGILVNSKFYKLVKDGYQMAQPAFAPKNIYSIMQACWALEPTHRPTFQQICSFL
- PROCEDURE DETAILS: BaF3 BCR-FMS cell proliferation assay (ATPlite)
- ASSAY CONDITIONS: read-out: Inhibition of Cell Proliferation IC50, BCR/BaF3 Fms
MEASUREMENT LABEL: IC50

Below, each entry is followed by its recorded IC50 result.
{"MOLECULE": "Clc1cnc2[nH]cc(Cc3cnc(NC4CCC4)nc3)c2c1", "IC50": "< 1 µM"}
{"MOLECULE": "CCc1ccc(Nc2ccc(C(=O)c3c[nH]c4ncnc(NC5CCCC5)c34)c(F)n2)cn1", "IC50": "< 0.01 µM"}
{"MOLECULE": "CCOc1ccc(Nc2ccc(Cc3c[nH]c4ncnc(OCCOC)c34)c(F)n2)cn1", "IC50": "< 0.01 µM"}
{"MOLECULE": "Fc1cccc(Nc2ncc(Cc3c[nH]c4ncc(Cl)cc34)cn2)c1", "IC50": "< 1 µM"}
{"MOLECULE": "COc1cncc(Nc2ccc(C(=O)c3c[nH]c4ncnc(NC5CC5)c34)c(F)n2)c1", "IC50": "< 0.1 µM"}

q: I would be grateful if you could share the reported IC50 for CCOc1ccc(Nc2ccc(Cc3c[nH]c4ncnc(C)c34)c(F)n2)cn1 .
a: < 0.01 µM

q: I would be grateful if you could share the reported IC50 for CNc1ncnc2[nH]cc(C(=O)c3ccc(Nc4ccc(C)nc4)nc3F)c12 .
a: < 0.01 µM

q: I would be grateful if you could share the reported IC50 for CCNc1ncnc2[nH]cc(C(=O)c3ccc(NC4CCC(F)(F)CC4)nc3Cl)c12 .
a: < 1 µM

q: I would be grateful if you could share the reported IC50 for Cc1ccc(Nc2ccc(C(=O)c3c[nH]c4ncnc(NC5CCCCC5)c34)c(F)n2)cn1 .
a: < 0.1 µM

q: I would be grateful if you could share the reported IC50 for COc1ccc(Nc2ccc(C(=O)c3c[nH]c4ncnc(N[C@@H](C)c5ccc(F)cc5)c34)c(F)n2)cn1 .
a: < 0.1 µM

q: I would be grateful if you could share the reported IC50 for Fc1cc(Cc2c[nH]c3ncnc(NC4CC4)c23)cnc1NC1CCC(F)(F)CC1 .
a: < 0.01 µM

q: I would be grateful if you could share the reported IC50 for COc1ccc(Nc2ccc(C(=O)c3c[nH]c4ncnc(NC5CCCC5)c34)c(F)n2)cn1 .
a: < 0.01 µM

q: I would be grateful if you could share the reported IC50 for CCc1ccc(Nc2ccc(C(=O)c3c[nH]c4ncnc(NC)c34)c(F)n2)cn1 .
a: < 0.01 µM

q: I would be grateful if you could share the reported IC50 for COc1ccc(Nc2ccc(C(=O)c3c[nH]c4ncnc(NCC5CCCO5)c34)c(F)n2)cn1 (centres unmarked) .
a: < 0.1 µM

q: I would be grateful if you could share the reported IC50 for CCc1ccc(Nc2ccc(C(=O)c3c[nH]c4ncnc(NCC(C)(C)O)c34)c(F)n2)cn1 .
a: < 0.1 µM

q: I would be grateful if you could share the reported IC50 for CCc1ccc(Nc2ccc(C(=O)c3c[nH]c4ncnc(NCC5CC5)c34)c(F)n2)cn1 .
a: < 0.01 µM

q: I would be grateful if you could share the reported IC50 for Cc1cnc2[nH]cc(Cc3cnc(Nc4ccc(S(C)(=O)=O)cc4)nc3)c2c1 .
a: < 0.01 µM

q: I would be grateful if you could share the reported IC50 for CNc1ncnc2[nH]cc(C(=O)c3ccc(NC4CCC(F)(F)CC4)nc3)c12 .
a: < 0.1 µM
